- System: E6SM
- test.protocol: Tested for the minimum inhibitory concentration required to reduce thymidine kinase deficient herpes simplex virus type 1 (TK- HSV-1) strain B2006 induced cytopathogenicity by 50%.
- Type: functional
- run.parameters: Homo sapiens
Label Condition met when MIC is strictly below 40 µg/mL; otherwise label Condition not met.

Here's what some known entries look like.
{"compound": "O=c1[nH]c(=O)n(C2COC(CO)C(O)C2)cc1/C=C/Br (configuration not stated)", "target.entity": "E6SM", "answer.label": "Condition not met"}
{"compound": "Nc1nc(N)c2ncn(C3COC(CO)C(O)C3)c2n1 (configuration not stated)", "target.entity": "E6SM", "answer.label": "Condition met"}
{"compound": "O=c1[nH]c(=O)n(C2COC(CO)C(O)C2)cc1F (configuration not stated)", "target.entity": "E6SM", "answer.label": "Condition not met"}
{"compound": "O=c1[nH]c(=O)n(C2COC(CO)C(O)C2)cc1I (configuration not stated)", "target.entity": "E6SM", "answer.label": "Condition not met"}

Consider the additional compound presented here.
Challenge: Say whether its MIC is strictly beneath 40 µg/mL. Entry: Nc1nc(=O)n(C2COC(CO)C(O)C2)cc1I (configuration not stated)
Response given: Condition not met

====

- Test system: E6SM
- test.protocol: Tested for the minimum inhibitory concentration required to reduce herpes simplex virus type 1 (TK- / TK+ HSV-1) strain VMW-1837 induced cytopathogenicity by 50%.
- Assay type: functional
- run.parameters: Homo sapiens
Consider the following molecules; for each one, report its MIC.
Give bare numbers, in µg/mL.

Sample answers from the record:
{"molecule": "Nc1ncnc2c1ncn2C[C@@H](CO)OCP(=O)(O)O", "units.label": "µg/mL", "MIC": 1}
{"molecule": "O=c1[nH]c(=O)n(C2COC(CO)C(O)C2)cc1/C=C/Br (stereo not drawn)", "units.label": "µg/mL", "MIC": 70}
{"molecule": "Nc1nc(=O)n(C2COC(CO)C(O)C2)cc1Cl (stereo not drawn)", "units.label": "µg/mL", "MIC": 300}
{"molecule": "O=c1[nH]c(=O)n([C@H]2C[C@H](O)[C@@H](CO)O2)cc1/C=C/Br", "units.label": "µg/mL", "MIC": 70}
{"molecule": "Nc1nc(N)c2ncn(C3COC(CO)C(O)C3)c2n1 (stereo not drawn)", "units.label": "µg/mL", "MIC": 0.7}

Each molecule below has a recorded value; state its MIC.
1. CCc1cn(C2COC(CO)C(O)C2)c(=O)[nH]c1=O (stereo not drawn)
2. Nc1nc(=O)n(C2COC(CO)C(O)C2)cc1I (stereo not drawn)
3. O=c1[nH]c(=O)n([C@H]2C[C@H](O)[C@@H](CO)O2)cc1I

Response given:
1. 0.4
2. 70
3. 10

====

- Tested on: E6SM
- test.protocol: Tested for the minimum inhibitory concentration required to reduce vaccinia virus(VV) induced cytopathogenicity by 50%.
- Type: functional
- run.parameters: Homo sapiens
Provide the recorded MIC for the entries that follow.
One number for each entry, in µg/mL.

# annotated cases, reported MIC shown
{"compound": "Nc1nc(=O)n(C2COC(CO)C(O)C2)cc1F (stereo not drawn)", "MIC [µg/mL]": 0.2}
{"compound": "O=c1[nH]c(=O)n([C@H]2C[C@H](O)[C@@H](CO)O2)cc1/C=C/Br", "MIC [µg/mL]": 2}
{"compound": "Nc1nc(=O)n(C2COC(CO)C(O)C2)cc1I (stereo not drawn)", "MIC [µg/mL]": 150}

Below are 2 compounds. Give each one its MIC.
1. CCc1cn(C2COC(CO)C(O)C2)c(=O)[nH]c1=O (stereo not drawn)
2. Nc1nc(N)c2ncn(C3COC(CO)C(O)C3)c2n1 (stereo not drawn)

Response given:
[200, 7]

Please give MIC, item by item, for the list that follows.
1. O=c1[nH]c(=O)n([C@H]2C[C@H](O)[C@@H](CO)O2)cc1I
2. Nc1ncnc2c1ncn2C[C@@H](CO)OCP(=O)(O)O
3. O=c1[nH]c(=O)n(C2COC(CO)C(O)C2)cc1I (stereo not drawn)

Response given:
1. 0.7
2. 0.7
3. 200

====

- Test system: HEL
- test.protocol: Tested for the inhibitory concentration required to reduce TK+ Varicella-Zoster virus (TK+ VZV) strain OKA plaque formation by 50%.
- Format: functional, cell-based
- run.parameters: Homo sapiens
attribute.measured: IC50

{"compound": "Nc1nc(=O)n(C2COC(CO)C(O)C2)cc1I (centres undefined)", "IC50": "> 40 µg/mL"}
{"compound": "O=c1[nH]c(=O)n(C2COC(CO)C(O)C2)cc1/C=C/Br (centres undefined)", "IC50": "1.4 µg/mL"}
{"compound": "Nc1nc(N)c2ncn(C3COC(CO)C(O)C3)c2n1 (centres undefined)", "IC50": "1.2 µg/mL"}

// below: IC50 requested for another compound
Challenge: For the compound Nc1nc(=O)n(C2COC(CO)C(O)C2)cc1Cl (centres undefined) , what IC50 is on record?
Response given: 40 µg/mL

====

- Test system: E6SM
- test.protocol: Tested for the minimum inhibitory concentration required to reduce herpes simplex virus type 2 (HSV-2) strain G induced cytopathogenicity by 50%.
- Format: functional
- run.parameters: Homo sapiens
attribute.measured: MIC (µg/mL)
Numbers only, in µg/mL.

{"compound": "Nc1nc(=O)n(C2COC(CO)C(O)C2)cc1F (stereo unspecified)", "MIC, µg/mL": 2}
{"compound": "O=c1[nH]c(=O)n([C@H]2C[C@H](O)[C@@H](CO)O2)cc1I", "MIC, µg/mL": 0.2}
{"compound": "Nc1nc(=O)n(C2COC(CO)C(O)C2)cc1Cl (stereo unspecified)", "MIC, µg/mL": 300}
{"compound": "Nc1nc(N)c2ncn(C3COC(CO)C(O)C3)c2n1 (stereo unspecified)", "MIC, µg/mL": 0.7}

With those in mind, consider the next compound.
Challenge: Report MIC for Nc1nc(=O)n(C2COC(CO)C(O)C2)cc1I (stereo unspecified) please.
Response given: 7

====

I'd be grateful if you could share measured IC50 for these entries.
- Tested on: HEL
- test.protocol: Tested for the inhibitory concentration required to reduce TK+ Varicella-Zoster virus (TK+ VZV) strain OKA plaque formation by 50%.
- Format: functional, cell-based
- run.parameters: Homo sapiens

{"molecule": "O=c1[nH]c(=O)n(C2COC(CO)C(O)C2)cc1F (stereo unspecified)", "result": "40 µg/mL"}
{"molecule": "Nc1nc2c(ncn2COC(CO)CO)c(=O)[nH]1 [GANCICLOVIR]", "result": "0.02 µg/mL"}
{"molecule": "O=c1[nH]c(=O)n(C2COC(CO)C(O)C2)cc1I (stereo unspecified)", "result": "> 100 µg/mL"}
{"molecule": "CCc1cn(C2COC(CO)C(O)C2)c(=O)[nH]c1=O (stereo unspecified)", "result": "> 50 µg/mL"}
{"molecule": "O=c1[nH]c(=O)n([C@H]2C[C@H](O)[C@@H](CO)O2)cc1I [IDOXURIDINE]", "result": "0.17 µg/mL"}

Attention now turns to another entry.
Challenge: Requested read-out IC50, target or system HEL, entry O=c1[nH]c(=O)n([C@H]2C[C@H](O)[C@@H](CO)O2)cc1/C=C/Br [BRIVUDINE]
Response given: 0.0007 µg/mL

====

- Test system: E6SM
- test.protocol: Tested for the minimum inhibitory concentration required to reduce herpes simplex virus type 2 (HSV-2) strain G induced cytopathogenicity by 50%.
- Format: functional
- run.parameters: Homo sapiens
attribute.measured: MIC

I would be grateful if you could provide MIC for each of the following entries.
1. O=c1[nH]c(=O)n(C2COC(CO)C(O)C2)cc1F (stereo unspecified)
2. O=c1[nH]c(=O)n(C2COC(CO)C(O)C2)cc1/C=C/Br (stereo unspecified)
3. O=c1[nH]c(=O)n(C2COC(CO)C(O)C2)cc1I (stereo unspecified)
4. CCc1cn(C2COC(CO)C(O)C2)c(=O)[nH]c1=O (stereo unspecified)
5. Nc1ncnc2c1ncn2C[C@@H](CO)OCP(=O)(O)O
6. O=c1ccn(C2COC(CO)C(O)C2)c(=O)[nH]1 (stereo unspecified)

Response given:
1. > 400 µg/mL
2. 150 µg/mL
3. 0.4 µg/mL
4. 0.4 µg/mL
5. 0.02 µg/mL
6. > 400 µg/mL

====

- Test system: HEL
- test.protocol: Tested for the inhibitory concentration required to reduce thymidine kinase deficient Varicella-Zoster virus (TK- VZV) strain 07/1 plaque formation by 50%.
- Format: functional, cell-based
- run.parameters: Homo sapiens
attribute.measured: IC50 (µg/mL)
One number for each entry, in µg/mL.

{"molecule": "O=c1[nH]c(=O)n([C@H]2C[C@H](O)[C@@H](CO)O2)cc1/C=C/Br", "attribute.measured": "IC50", "units.label": "µg/mL", "recorded.number": 8}
{"molecule": "O=c1[nH]c(=O)n(C2COC(CO)C(O)C2)cc1/C=C/Br (stereo unspecified)", "attribute.measured": "IC50", "units.label": "µg/mL", "recorded.number": 20}
{"molecule": "Nc1nc(=O)n(C2COC(CO)C(O)C2)cc1F (stereo unspecified)", "attribute.measured": "IC50", "units.label": "µg/mL", "recorded.number": 5}

Hello, I would appreciate it if you could give IC50 for each entry below.
1. Nc1nc2c(ncn2COC(CO)CO)c(=O)[nH]1
2. O=c1[nH]c(=O)n([C@H]2C[C@H](O)[C@@H](CO)O2)cc1I
3. Nc1nc(N)c2ncn(C3COC(CO)C(O)C3)c2n1 (stereo unspecified)

Response given:
1. 0.1
2. 4
3. 2.4
